This collection of values is drawn from ChEMBL document CHEMBL1275409.

# System: Staphylococcus aureus
# protocol text: Antimicrobial activity against methicillin-susceptible Staphylococcus aureus isolated from ICU patient urine assessed as resistant isolates by broth microdilution method
# Format: functional
readout: Activity

Before answering, review these 2 worked examples.
CCC[C@@H]1C[C@@H](C(=O)N[C@@H]([C@H]2O[C@H](SC)[C@H](O)[C@@H](O)[C@H]2O)[C@H](C)Cl)N(C)C1 : 10%
COc1c(N2C[C@@H]3CCCN[C@@H]3C2)c(F)cc2c(=O)c(C(=O)O)cn(C3CC3)c12 : 15%

Moving on to the next compound.
**Q:** Consider the compound `CN(C)c1cc(NC(=O)CNC(C)(C)C)c(O)c2c1C[C@H]1C[C@H]3[C@H](N(C)C)C(O)=C(C(N)=O)C(=O)[C@@]3(O)C(O)=C1C2=O` and give its recorded Activity.
**A:** 0%

* * *

Each item that follows carries a reported Activity.
# Test system: Staphylococcus epidermidis
# protocol text: Antimicrobial activity against methicillin-susceptible Staphylococcus epidermidis assessed as resistant isolates by broth microdilution method
# Assay type: functional
Could you give me the number in %? Just the number is fine.

Before answering, review these 2 worked examples.
Cc1nnc(SCC2=C(C(=O)O)N3C(=O)[C@@H](NC(=O)Cn4cnnn4)[C@H]3SC2)s1 [CEFAZOLIN] : 0
CN[C@H](CC(C)C)C(=O)N[C@H]1C(=O)N[C@@H](CC(N)=O)C(=O)N[C@H]2C(=O)N[C@H]3C(=O)N[C@H](C(=O)N[C@H](C(=O)O)c4cc(O)cc(O)c4-c4cc3ccc4O)[C@H](O)c3ccc(c(Cl)c3)Oc3cc2cc(c3O[C@@H]2O[C@H](CO)[C@@H](O)[C@H](O)[C@H]2O[C@H]2C[C@](C)(N)[C@H](O)[C@H](C)O2)Oc2ccc(cc2Cl)[C@H]1O [VANCOMYCIN] : 0

**Q:** Consider the compound C[C@H]1COc2c(N3CCN(C)CC3)c(F)cc3c(=O)c(C(=O)O)cn1c23.C[C@H]1COc2c(N3CCN(C)CC3)c(F)cc3c(=O)c(C(=O)O)cn1c23.O [LEVOFLOXACIN] and give its recorded Activity.
**A:** 52.3

**Q:** Consider the compound CO/N=C(\C(=O)N[C@@H]1C(=O)N2C(C(=O)O)=C(CSc3nc(=O)c(O)nn3C)CS[C@H]12)c1csc(N)n1 [CEFTRIAXONE] and give its recorded Activity.
**A:** 8.1

**Q:** Consider the compound CC[C@H]1OC(=O)[C@H](C)[C@@H](O[C@H]2C[C@@](C)(OC)[C@@H](O)[C@H](C)O2)[C@H](C)[C@@H](O[C@@H]2O[C@H](C)C[C@H](N(C)C)[C@H]2O)[C@](C)(OC)C[C@@H](C)C(=O)[C@H](C)[C@@H](O)[C@]1(C)O [CLARITHROMYCIN] and give its recorded Activity.
**A:** 77.4

**Q:** Consider the compound O=C(O)c1cn(C2CC2)c2cc(N3CCNCC3)c(F)cc2c1=O [CIPROFLOXACIN] and give its recorded Activity.
**A:** 54.7

**Q:** Consider the compound CCC[C@@H]1C[C@@H](C(=O)N[C@@H]([C@H]2O[C@H](SC)[C@H](O)[C@@H](O)[C@H]2O)[C@H](C)Cl)N(C)C1 [CLINDAMYCIN] and give its recorded Activity.
**A:** 54.8

**Q:** Consider the compound C[C@@H](O)[C@H]1C(=O)N2C(C(=O)O)=C(S[C@@H]3CN[C@H](C(=O)N(C)C)C3)[C@H](C)[C@H]12 [MEROPENEM] and give its recorded Activity.
**A:** 9.3

**Q:** Consider the compound `CO/N=C(\C(=O)N[C@@H]1C(=O)N2C(C(=O)[O-])=C(C[N+]3(C)CCCC3)CS[C@H]12)c1csc(N)n1` and give its recorded Activity.
**A:** 16.3

**Q:** Consider the compound `CCCCCCCCCC(=O)N[C@@H](Cc1c[nH]c2ccccc12)C(=O)N[C@H](CC(N)=O)C(=O)N[C@@H](CC(=O)O)C(=O)N[C@@H]1C(=O)NCC(=O)N[C@@H](CCCN)C(=O)N[C@@H](CC(=O)O)C(=O)N[C@H](C)C(=O)N[C@@H](CC(=O)O)C(=O)NCC(=O)N[C@H](CO)C(=O)N[C@@H]([C@H](C)CC(=O)O)C(=O)N[C@@H](CC(=O)c2ccccc2N)C(=O)O[C@@H]1C` and give its recorded Activity.
**A:** 0

**Q:** Consider the compound COc1c(N2C[C@@H]3CCCN[C@@H]3C2)c(F)cc2c(=O)c(C(=O)O)cn(C3CC3)c12 [MOXIFLOXACIN] and give its recorded Activity.
**A:** 41.7

**Q:** Consider the compound CC(=O)NC[C@H]1CN(c2ccc(N3CCOCC3)c(F)c2)C(=O)O1 [LINEZOLID] and give its recorded Activity.
**A:** 0

* * *

# Tested on: Pseudomonas aeruginosa
# protocol text: Antimicrobial activity against carbapenem-resistant Pseudomonas aeruginosa isolated from ICU patient urine assessed as resistant isolates by broth microdilution method
# Assay type: functional
readout: Activity (%)
Could you give me the number in %? Just the number is fine.

Before answering, review these 6 worked examples.
NCC[C@H](O)C(=O)N[C@@H]1C[C@H](N)[C@@H](O[C@H]2O[C@H](CN)[C@@H](O)[C@H](O)[C@H]2O)[C@H](O)[C@H]1O[C@H]1O[C@H](CO)[C@@H](O)[C@H](N)[C@H]1O : 0
C[C@H]1COc2c(N3CCN(C)CC3)c(F)cc3c(=O)c(C(=O)O)cn1c23.C[C@H]1COc2c(N3CCN(C)CC3)c(F)cc3c(=O)c(C(=O)O)cn1c23.O : 0
C[C@@H](O)[C@H]1C(=O)N2C(C(=O)O)=C(S[C@@H]3CN[C@H](C(=O)N(C)C)C3)[C@H](C)[C@H]12 : 0
O=C(O)c1cn(C2CC2)c2cc(N3CCNCC3)c(F)cc2c1=O : 0
CO/N=C(\C(=O)N[C@@H]1C(=O)N2C(C(=O)[O-])=C(C[N+]3(C)CCCC3)CS[C@H]12)c1csc(N)n1 : 0
CO/N=C(\C(=O)N[C@@H]1C(=O)N2C(C(=O)O)=C(CSc3nc(=O)c(O)nn3C)CS[C@H]12)c1csc(N)n1 : 33.3

**Q:** Fill in: Activity on Pseudomonas aeruginosa, entry `CN(C)c1cc(NC(=O)CNC(C)(C)C)c(O)c2c1C[C@H]1C[C@H]3[C@H](N(C)C)C(O)=C(C(N)=O)C(=O)[C@@]3(O)C(O)=C1C2=O`
**A:** 2

**Q:** Fill in: Activity on Pseudomonas aeruginosa, entry `Cc1nnc(SCC2=C(C(=O)O)N3C(=O)[C@@H](NC(=O)Cn4cnnn4)[C@H]3SC2)s1`
**A:** 7.8

* * *

# System: Escherichia coli
# protocol text: Antimicrobial activity against CTX-M ESBL producing Escherichia coli isolated from ICU patient wound assessed as resistant isolates by broth microdilution method
# Assay type: functional
readout: Activity (%)
Could you give me the number in %? Just the number is fine.

Cc1nnc(SCC2=C(C(=O)O)N3C(=O)[C@@H](NC(=O)Cn4cnnn4)[C@H]3SC2)s1 : 8.6

**Q:** Fill in: Activity on Escherichia coli, entry `C[C@H]1COc2c(N3CCN(C)CC3)c(F)cc3c(=O)c(C(=O)O)cn1c23.C[C@H]1COc2c(N3CCN(C)CC3)c(F)cc3c(=O)c(C(=O)O)cn1c23.O`
**A:** 24.1

**Q:** Fill in: Activity on Escherichia coli, entry `O=C(O)c1cn(C2CC2)c2cc(N3CCNCC3)c(F)cc2c1=O`
**A:** 24.1

**Q:** Fill in: Activity on Escherichia coli, entry `CN(C)c1cc(NC(=O)CNC(C)(C)C)c(O)c2c1C[C@H]1C[C@H]3[C@H](N(C)C)C(O)=C(C(N)=O)C(=O)[C@@]3(O)C(O)=C1C2=O`
**A:** 0

**Q:** Fill in: Activity on Escherichia coli, entry `CO/N=C(\C(=O)N[C@@H]1C(=O)N2C(C(=O)O)=C(CSc3nc(=O)c(O)nn3C)CS[C@H]12)c1csc(N)n1`
**A:** 1.7

**Q:** Fill in: Activity on Escherichia coli, entry `C[C@@H](O)[C@H]1C(=O)N2C(C(=O)O)=C(S[C@@H]3CN[C@H](C(=O)N(C)C)C3)[C@H](C)[C@H]12`
**A:** 0

**Q:** Fill in: Activity on Escherichia coli, entry `NCC[C@H](O)C(=O)N[C@@H]1C[C@H](N)[C@@H](O[C@H]2O[C@H](CN)[C@@H](O)[C@H](O)[C@H]2O)[C@H](O)[C@H]1O[C@H]1O[C@H](CO)[C@@H](O)[C@H](N)[C@H]1O`
**A:** 0

* * *

# Tested on: Escherichia coli
# protocol text: Antimicrobial activity against CTX-M ESBL producing Escherichia coli isolated from ICU patient respiratory tract assessed as resistant isolates by broth microdilution method
# Type: functional
Each item that follows carries a reported Activity.
Your answer should be a number followed by the unit of measure.

C[C@@H](O)[C@H]1C(=O)N2C(C(=O)O)=C(S[C@@H]3CN[C@H](C(=O)N(C)C)C3)[C@H](C)[C@H]12 : 0%

**Q:** Consider the molecule `C[C@H]1COc2c(N3CCN(C)CC3)c(F)cc3c(=O)c(C(=O)O)cn1c23.C[C@H]1COc2c(N3CCN(C)CC3)c(F)cc3c(=O)c(C(=O)O)cn1c23.O` and give its recorded Activity.
**A:** 21.3%

**Q:** Consider the molecule `Cc1nnc(SCC2=C(C(=O)O)N3C(=O)[C@@H](NC(=O)Cn4cnnn4)[C@H]3SC2)s1` and give its recorded Activity.
**A:** 11.5%

**Q:** Consider the molecule `CO/N=C(\C(=O)N[C@@H]1C(=O)N2C(C(=O)[O-])=C(C[N+]3(C)CCCC3)CS[C@H]12)c1csc(N)n1` and give its recorded Activity.
**A:** 0.8%

**Q:** Consider the molecule `CN(C)c1cc(NC(=O)CNC(C)(C)C)c(O)c2c1C[C@H]1C[C@H]3[C@H](N(C)C)C(O)=C(C(N)=O)C(=O)[C@@]3(O)C(O)=C1C2=O` and give its recorded Activity.
**A:** 0%
